// provenance: patent US12174198B2

Target: FUS-SNAP condensates (Homo sapiens)
Sequence (P35637 1-526): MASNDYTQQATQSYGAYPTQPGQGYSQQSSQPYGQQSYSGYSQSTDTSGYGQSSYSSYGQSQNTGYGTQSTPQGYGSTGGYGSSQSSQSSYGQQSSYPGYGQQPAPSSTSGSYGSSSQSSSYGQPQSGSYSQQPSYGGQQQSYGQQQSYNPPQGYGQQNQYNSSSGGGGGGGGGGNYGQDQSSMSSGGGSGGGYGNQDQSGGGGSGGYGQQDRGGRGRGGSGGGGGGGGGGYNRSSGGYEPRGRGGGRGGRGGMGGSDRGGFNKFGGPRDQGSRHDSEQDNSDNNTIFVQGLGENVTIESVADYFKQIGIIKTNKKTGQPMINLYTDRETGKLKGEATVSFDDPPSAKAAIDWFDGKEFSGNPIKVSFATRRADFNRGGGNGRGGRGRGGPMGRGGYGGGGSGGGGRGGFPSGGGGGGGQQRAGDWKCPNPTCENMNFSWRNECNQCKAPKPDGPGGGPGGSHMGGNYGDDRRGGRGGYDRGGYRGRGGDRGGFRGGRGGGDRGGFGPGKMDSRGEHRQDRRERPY
Assay: Fluorescence imaging of dye partitioning in FUS-SNAP condensates (I-in, I-out)
Format: physicochemical
Settings: I-in:I-out; average of two days; 10 μM dye
Where a name gives a salt, the structure may show the parent alone.
# cutoff 2 applies to Ratio of intensity inside:outside FUS-SNAP Condensates Average; >= gives t, < gives f

{"COMPOUND": "N#CC1=c2cc3c4c(c2Oc2c1cc1c5c2CCCN5CCC1)CCC[N+]=4CCC3", "LABEL_CLASS": "t"}
{"COMPOUND": "O=C(O)c1cc2cc3c4c(c2oc1=O)CCCN4CCC3", "LABEL_CLASS": "t"}
{"COMPOUND": "O=C(CCCC[C@@H]1SCC2NC(=O)NC21)NCCNC(=O)c1ccc(-c2c3ccc(=O)cc-3oc3ccc(O)cc23)c(C(=O)O)c1 (stereo partly drawn)", "LABEL_CLASS": "t"}
{"COMPOUND": "CC(=O)Oc1ccc2c(c1)Oc1cc(OC(C)=O)ccc1C21OC(=O)c2ccccc21 [Dye 9, Fluorescein diacetate]", "LABEL_CLASS": "f"}
{"COMPOUND": "CC(=O)N[C@H]1[C@H](Oc2ccc3c(c2)Oc2cc(O)ccc2C32OC(=O)c3ccccc32)O[C@H](CO)[C@H](O)[C@@H]1O (stereo partly drawn)", "LABEL_CLASS": "f"}
{"COMPOUND": "O=C1OC2(c3ccc(O)cc3Oc3cc(O)ccc32)c2ccccc21", "LABEL_CLASS": "f"}
{"COMPOUND": "COC(=O)c1ccccc1-c1c2ccc(=N)cc-2oc2cc(N)ccc12.Cl", "LABEL_CLASS": "f"}
{"COMPOUND": "CC(=O)c1cc2cc3c4c(c2oc1=O)CCCN4CCC3", "LABEL_CLASS": "t"}
{"COMPOUND": "N=C(N)c1ccc(-c2cc3ccc(C(=N)N)cc3[nH]2)cc1", "LABEL_CLASS": "t"}
{"COMPOUND": "CCN(CC)c1ccc2c(-c3ccccc3C(=O)O)c3ccc(=[N+](CC)CC)cc-3oc2c1", "LABEL_CLASS": "t"}
{"COMPOUND": "O=C([O-])c1ccccc1C1=c2cc3c4c(c2Oc2c1cc1c5c2CCCN5CCC1)CCC[N+]=4CCC3 [Dye 17, Rhodamine 101 inner salt]", "LABEL_CLASS": "t"}
{"COMPOUND": "O=c1cc(C(F)(F)F)c2ccc(O)cc2o1 [Dye 2, 7-Hydroxy-4-(trifluoromethyl)-coumarin]", "LABEL_CLASS": "f"}
